system: RXF 393 renal; assay: NCI-60 one-dose screen, 48 h (100 = growth as untreated, 0 = no growth, -100 = all killed); conditions: 10 µM unless noted
Compounds without any hit were thinned out: in the full panel of roughly 83,000, 20% have a hit.
So I've got a bunch of compounds here, and I need their growth values.
Give bare numbers, in %.

Recorded growth, per entry:
CN(C)C(=S)NN=C(c1ccccn1)c1ccccn1 = 6.64
CCNCCNc1c(C)c(-c2ccc(C(F)(F)F)cc2)c(C#N)c2nc3ccccc3n12 = 90.4
CC1(C)CCC[C@]23C(=O)O[C@](O)(C(=O)C4=C[C@@](C)(/C=C/CCCc5ccc6ccc7cccc8ccc5c6c78)CC[C@@]42O)[C@@H]13 = -86.2
Cc1c(-c2cnc3ccc(Cl)cc3c2C(=O)O)nnn1-c1ccc(Cl)cc1 = 122

Any idea what growth was measured for `CCOC(=O)/C(=C/c1ccc([N+](=O)[O-])cc1)C(=O)c1ccccc1` ?
-11.1

----------
Tested on: SNB-19 CNS
Experiment: NCI-60 one-dose screen, 48 h (100 = growth as untreated, 0 = no growth, -100 = all killed)
Settings: 10 µM unless noted
Method: Growth inhibition of the SNB-19 human tumor cell line is measured as a screen for anti-cancer activity. Cells are grown in 96 well plates and exposed to the test compound for 48 hours. Compounds are tested at a single concentration, which is 10^-5 M for most compounds. The reported endpoint is percent growth (GI% or GIPRCNT), where numbers from 0 - 100% represent growth inhibition, and numbers from -100% - 0 represent cell death. For example, a value of 40 represents 60% growth inhibition. […]
About 83,000 compounds went through this panel and 20% of them were active in at least one assay; those are over-represented in the sample as a whole.
So I've got a bunch of compounds here, and I need their growth values.
Give bare numbers, in %.

Recorded growth, per entry:
[2H]C([2H])([2H])Oc1ccc(/C=C/C(=O)/C=C(/C=C/c2ccc(OC([2H])([2H])[2H])c(OC([2H])([2H])[2H])c2OC([2H])([2H])[2H])OB(F)F)c(OC([2H])([2H])[2H])c1OC([2H])([2H])[2H] = 83
C/C(=N\NC(=O)c1ccc(C(C)(C)C)cc1)c1ccc(O)cc1O = 40.1
Cn1ccnc1C(=O)/C=C/c1ccc(CC(=O)Nc2cc(F)c(F)c(F)c2)cc1 = 20.3
O=C1c2cccnc2C(=O)c2c1c(C(=O)OCCCN1CCOCC1)c1ccccn21 = 9.22

Any idea what growth was measured for `COC(=O)[C@H](C)NC(=O)c1ccc(NC(=O)c2[nH]c(C)c(Cl)c2Cl)c(OCCN)c1` ?
101

----------
system: IGROV1 ovarian; test: NCI-60 one-dose screen, 48 h; conditions: 10 µM unless noted
About 83,000 compounds went through this panel and 20% of them were active in at least one assay; those are over-represented in the sample as a whole. Calls of active or inactive are those of the source. Rule for the calls: active = growth percent below 10; inactive = the rest.
The categories you may choose from are label 1 = active, label 0 = inactive

Solved entries (count: 5):
Cc1ccc(-c2nnc(SCc3nc(N)nc(Nc4ccccc4F)n3)n2-c2ccccc2)cc1 = label 0
O=C(Nc1ccc2[nH]ncc2c1)c1csc(Nc2ccccc2)n1 = label 0
CC(C)=CC(=O)C1C(=O)c2ccccc2C1=O = label 0
Clc1ccc2c(NCCCn3cnc4c(N5CCCC5)nc(Cl)nc43)ccnc2c1 = label 0
Cc1c(CC(=O)Nc2ccccc2)nnn1-c1ccccc1 = label 0

Record request — test call for `CC1(C)CC[C@]2(CO)CC[C@]3(C)[C@H](CC[C@@H]4[C@@]5(C)CC[C@H](O)C(C)(C)[C@@H]5CC[C@]43C)[C@H]2[C@H]1O`
label 0

----------
tested on: OVCAR-5 ovarian; assay: NCI-60 one-dose screen, 48 h; conditions: 10 µM unless noted
Compounds without any hit were thinned out: in the full panel of roughly 83,000, 20% have a hit. Active and inactive are the calls of the source. Rule for the calls: active = growth percent below 10; inactive = the rest.
The categories you may choose from are class 1 for active, class 0 for inactive

Solved entries (count: 5):
O=C(Nc1ccc2c(c1)-c1ccccc1C2)C1CC(=O)N(c2ccc3c(c2)OCO3)C1 (stereo not drawn) = class 0
COc1cc2c(cc1OC)CC[N+](CCC[N+](C)(C)C)=C2 = class 0
CN(C)c1ccc(/C=C/C2=[N+](C)c3ccccc3C2(C)C)cc1 = class 0
CC(C)(C)c1ccc(C(=O)Nc2sc3c(c2C#N)CCC(=O)C3)cc1 = class 0
O=C1c2cccnc2C(=O)c2c1c(C(=O)OCCCN1CCOCC1)c1ccccn21 = class 1

Record request — test call for `COC(=O)[C@H]1Cc2c([nH]c3ccccc23)[C@H](c2ccc3c(c2)OCO3)N1`
class 0

Entry to check: `C[C@H]1c2ccccc2CN1CCCOc1cc2c(cc1OCC1CC1)C1(CCCC1)C(N)=N2`
class 0

Entry to check: `CCCS(=O)(=O)Nc1cccc(Nc2ncnc3cc(NC(=O)CCl)ccc23)c1Cl`
class 1

----------
system: HS 578T breast; test: NCI-60 one-dose screen, 48 h (100 = growth as untreated, 0 = no growth, -100 = all killed); conditions: 10 µM unless noted
Compounds without any hit were thinned out: in the full panel of roughly 83,000, 20% have a hit.
measure: growth (%)
Answers are plain numbers, in %.

Parameters: items (list). Returns: growth for each item.
1. COC1=C(OC)C(=O)C(CCCCCCCCCCO)=C(C)C1=O
2. O=C1C(c2c(O)[nH]c3ncccc23)=Nc2ccccc21
3. CC(C)C(=O)Nc1ncc(C(=O)NCCN(Cc2ccccc2)C(=O)c2ccc(S(=O)(=O)Nc3ccccc3)cc2)s1
4. O=c1oc2ccccc2cc1-c1nn(-c2ccccc2)cc1/C=N/Nc1nc(-c2ccccc2)c(N=Nc2ccccc2)s1
5. O=C1Nc2ccccc2/C1=C/c1cccn1CCCCCCn1c2ccccc2c(=O)c2ccccc21

92.6
72.5
87.1
87.5
96.3

----------
tested on: NCI-H522 lung; assay: NCI-60 one-dose screen, 48 h (100 = growth as untreated, 0 = no growth, -100 = all killed); conditions: 10 µM unless noted
Compounds without any hit were thinned out: in the full panel of roughly 83,000, 20% have a hit.
The threshold is inclusive: growth of exactly 20% counts as yes; values below receive no.

COc1ccc(NC(=O)c2ccc(NC3=C(c4ccc(Cl)cc4)C(=O)NC3=O)cc2)cc1 = yes
COc1ccc(S(=O)(=O)NC2c3ccccc3CC2O)cc1OC (stereo not given) = yes
COc1ccc(/C=N\NC(=O)c2ccc3nc(-c4ccc(Cl)cc4)[nH]c3c2)cc1 = yes
Cn1ncc(CC(=O)O)c1-n1nnc2cc(Cl)ccc2c1=O = yes
O=C(O)/C=C\C(=O)Nc1ccc2c(c1)Cc1cc(F)ccc1-2 = yes

Does `CC(C)CCc1nc2ccc(NCc3ccc(OCCN4CCC(C)CC4)cc3)cc2[nH]1` have a reported growth of at least 20%?
yes

Entry to check: `CCOC(=O)c1cc(C(=O)c2cc(OC)cc(OC)c2)n2ccccc12`
yes

Entry to check: `O=C1c2cccnc2C(=O)c2c1c(C(=O)OCCCN1CCOCC1)c1ccccn21`
no

Entry to check: `COC(=O)[C@H](C)NC(=O)c1ccc(NC(=O)c2[nH]c(C)c(Cl)c2Cl)c(OCCN)c1`
yes

Entry to check: N#CC1=C(N)Oc2c(ccc3ccccc23)C1c1cc2ccccc2n2nnnc12 (stereo not given)
no

Entry to check: `O=C1NCCS(=O)(=O)/C1=C\C=C\c1cccc(C(F)(F)F)c1`
no

Entry to check: `O=C1/C(=C/c2cccc([N+](=O)[O-])c2)COc2ccc(O)c(O)c21`
no

----------
System: SR leukemia
Assay: NCI-60 one-dose screen, 48 h (100 = growth as untreated, 0 = no growth, -100 = all killed)
Conditions: 10 µM unless noted
Experimental: Growth inhibition of the SR human tumor cell line is measured as a screen for anti-cancer activity. Cells are grown in 96 well plates and exposed to the test compound for 48 hours. Compounds are tested at a single concentration, which is 10^-5 M for most compounds. The reported endpoint is percent growth (GI% or GIPRCNT), where numbers from 0 - 100% represent growth inhibition, and numbers from -100% - 0 represent cell death. For example, a value of 40 represents 60% growth inhibition. […]
Compounds without any hit were thinned out: in the full panel of roughly 83,000, 20% have a hit.
Simple rule here: growth less than 10% is condition met, otherwise condition not met.

# check: growth < 10% for `CC(C)CCc1nc2ccc(NCc3ccc(OCCN4CCC(C)CC4)cc3)cc2[nH]1`
condition not met

Entry to check: CCOC(=O)C1=C(c2ccccc2)N=C2N(c3ccccc3)N=C(C(C)=O)N2C1c1ccc(Br)cc1 (centres undefined)
condition not met

Entry to check: `Cc1nc2ccccc2c(/C=C/c2ccc(Cl)cc2)c1C(=O)/C=C/c1ccccc1`
condition not met

----------
test system: SF-268 CNS; experiment: NCI-60 one-dose screen, 48 h; conditions: 10 µM unless noted
About 83,000 compounds went through this panel and 20% of them were active in at least one assay; those are over-represented in the sample as a whole. Active and inactive are the calls of the source. How the source made its calls: active means growth percent below 10; inactive means the rest.
The categories you may choose from are active, inactive

Solved entries (count: 3):
O=S(=O)(c1ccc(NCSc2nc3ccccc3s2)cc1)c1ccc(NCSc2nc3ccccc3s2)cc1 = inactive
CCNCCNc1c(C)c(-c2ccc(C(F)(F)F)cc2)c(C#N)c2nc3ccccc3n12 = inactive
CCOC(=O)/C(=C/c1ccc([N+](=O)[O-])cc1)C(=O)c1ccccc1 = inactive

Record request — test call for O=C1CCC(C(=O)N/N=C/c2ccc([N+](=O)[O-])cc2)N1 (stereo not given)
inactive
